System: L1210 cells
ASSAY: Growth inhibition of L1210 cells in suspension culture, 48 h count
Assay type: cell-based
CONDITIONS_USED: Mus musculus, L1210, 48 h; second results table; read-out: ID50 L1210 (Tissue culture)
Assignment: determine reported pIC50 for the given compounds.
Answers are plain numbers, as −log10 of the molar value.

# COMPOUND, pIC50
data = [
    ("Nc1nc(O)c2cc(CN(CCCO)c3ccc(C(=O)N[C@@H](CCC(=O)O)C(=O)O)cc3)ccc2n1 [CB 3729]", 4.27),
    ("Nc1nc2ccc(CN(CC(=O)O)c3ccc(C(=O)N[C@@H](CCC(=O)O)C(=O)O)cc3)cc2c(=O)[nH]1 [CB 3728]", 4.57),
    ("C#CCN(Cc1ccc2nc(N)[nH]c(=O)c2c1)c1ccc(C(=O)N[C@@H](CCC(=O)O)C(=O)O)c(Cl)c1 [CB 3739]", 4.77),
    ("Nc1nc2ccc(CN(CCBr)c3ccc(C(=O)N[C@@H](CCC(=O)O)C(=O)O)cc3)cc2c(=O)[nH]1 [CB 3735]", 4.28),
]

We next turn to a different compound, shown below.
// recorded pIC50 for Nc1nc(O)c2cc(CN(Cc3c[nH]c(=O)[nH]c3=O)c3ccc(C(=O)N[C@@H](CCC(=O)O)C(=O)O)cc3)ccc2n1 [CB 3743] : 5.33
